- System name: MMP-13 (Homo sapiens)
- Protocol notes: MMP-13 inhibition (thiopeptide or fluorescent peptide substrate)
- Type: biochemical
- Condition set: % @ 10µM per footnote a; read-out: MMP13
Reported property: inhibition at 10 µM
Quick note: number first, unit second.

# input Please report the recorded inhibition at 10 µM for CC#CCOc1ccc(SC(C(=O)NO)c2ccc3ccccc3c2)cc1 (stereo not drawn) .
# output 30.5%

# input Please report the recorded inhibition at 10 µM for CC#CCOc1ccc(S(=O)(=O)C(C(=O)NO)c2ccc(OC)cc2)cc1 (stereo not drawn) .
# output 56.8%

# input Please report the recorded inhibition at 10 µM for CC#CCOc1ccc(SC(C(=O)NO)c2ccc(OCC)cc2)cc1 (stereo not drawn) .
# output 15%

# input Please report the recorded inhibition at 10 µM for CC#CCOc1ccc(SC(C(=O)NO)c2ccc(Cl)cc2)cc1 (stereo not drawn) .
# output 48.8%

# input Please report the recorded inhibition at 10 µM for CC#CCOc1ccc([S+]([O-])C(C(=O)NO)c2cccc3ccccc23)cc1 (stereo not drawn) .
# output 17%

# input Please report the recorded inhibition at 10 µM for CC#CCOc1ccc(S(=O)(=O)C(C(=O)NO)c2cccc(Br)c2)cc1 (stereo not drawn) .
# output 56%

# input Please report the recorded inhibition at 10 µM for CC#CCOc1ccc([S+]([O-])[C@@H](C(=O)NO)c2cccc(Br)c2)cc1 (single isomer, unassigned) .
# output 54%

# input Please report the recorded inhibition at 10 µM for CC#CCOc1ccc(S(=O)(=O)C(C(=O)NO)c2ccc(-c3cccs3)cc2)cc1 (stereo not drawn) .
# output 35%

# input Please report the recorded inhibition at 10 µM for CC#CCOc1ccc([S+]([O-])[C@H](C(=O)NO)c2ccc(OC)cc2)cc1 (single isomer, unassigned) .
# output 54.5%

# input Please report the recorded inhibition at 10 µM for CC#CCOc1ccc(SC(C(=O)NO)c2cccc3ccccc23)cc1 (stereo not drawn) .
# output 25%

# input Please report the recorded inhibition at 10 µM for CC#CCOc1ccc(SC(C(=O)NO)C(C)C)cc1 (stereo not drawn) .
# output 59.4%

# input Please report the recorded inhibition at 10 µM for CC#CCOc1ccc(SC(C(=O)NO)c2ccc(-c3cccs3)cc2)cc1 (stereo not drawn) .
# output 5%

----------
- System name: MMP-1 (Homo sapiens, UniProt P03956)
- Sequence (P03956 100-469): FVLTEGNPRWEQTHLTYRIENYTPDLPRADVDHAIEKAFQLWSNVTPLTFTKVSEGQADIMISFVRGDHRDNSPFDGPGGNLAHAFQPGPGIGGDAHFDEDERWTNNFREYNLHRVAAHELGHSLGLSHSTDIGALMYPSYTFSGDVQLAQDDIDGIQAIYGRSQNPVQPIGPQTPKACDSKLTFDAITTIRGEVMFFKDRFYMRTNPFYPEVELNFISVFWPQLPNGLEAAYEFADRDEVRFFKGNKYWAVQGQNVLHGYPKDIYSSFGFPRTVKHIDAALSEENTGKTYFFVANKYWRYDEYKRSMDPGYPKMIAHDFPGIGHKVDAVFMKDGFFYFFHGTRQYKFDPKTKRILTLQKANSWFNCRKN
- Protocol notes: MMP-1 inhibition (thiopeptide or fluorescent peptide substrate)
- Condition set: read-out: MMP1 IC50; Table 1
Reported property: pIC50
The quantity pIC50 is defined as the negative base-10 logarithm of the molar concentration.

# input Please report the recorded pIC50 for CC#CCOc1ccc(S(=O)(=O)C(CCCCCC)C(=O)NO)cc1 (stereo not shown) .
# output 5.00

----------
- System name: TNF-α converting enzyme (TACE) (Homo sapiens, UniProt P78536)
- Sequence (P78536 215-824): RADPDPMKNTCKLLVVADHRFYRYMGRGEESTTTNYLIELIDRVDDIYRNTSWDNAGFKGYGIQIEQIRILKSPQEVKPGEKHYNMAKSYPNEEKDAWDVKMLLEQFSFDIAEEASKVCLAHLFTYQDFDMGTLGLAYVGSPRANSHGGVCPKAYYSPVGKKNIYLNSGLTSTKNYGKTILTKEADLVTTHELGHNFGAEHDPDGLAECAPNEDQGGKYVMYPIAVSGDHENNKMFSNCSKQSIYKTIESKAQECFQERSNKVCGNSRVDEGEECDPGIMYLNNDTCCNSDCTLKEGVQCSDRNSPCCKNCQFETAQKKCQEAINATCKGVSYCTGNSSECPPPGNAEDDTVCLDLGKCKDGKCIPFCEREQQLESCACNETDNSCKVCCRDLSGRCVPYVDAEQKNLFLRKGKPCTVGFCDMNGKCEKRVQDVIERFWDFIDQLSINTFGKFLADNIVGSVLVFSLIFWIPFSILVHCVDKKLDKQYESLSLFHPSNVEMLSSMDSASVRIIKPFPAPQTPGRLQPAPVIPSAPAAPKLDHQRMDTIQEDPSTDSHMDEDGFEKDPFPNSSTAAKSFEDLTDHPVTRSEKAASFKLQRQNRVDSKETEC
- Protocol notes: Test procedure for measuring TACE inhibition (fluorescent peptidyl substrate)
- Assay type: biochemical
- Condition set: second table; IC50 (nM) per footnote a
Please note: IC50 exactly at 200 nM is label 0. Only values below 200 nM get label 1.

# input Record CC#CCOc1ccc(SC(C(=O)NO)c2ccc(Br)cc2)cc1 (stereo not drawn) : is its IC50 strictly below 200 nM?
# output label 0

# input Record CC#CCOc1ccc(SC(C(=O)NO)c2ccc(Cl)cc2)cc1 (stereo not drawn) : is its IC50 strictly below 200 nM?
# output label 1

# input Record CC#CCOc1ccc(SC(C(=O)NO)c2ccc(-c3cccs3)cc2)cc1 (stereo not drawn) : is its IC50 strictly below 200 nM?
# output label 0

# input Record CC#CCOc1ccc(SC(C(=O)NO)c2cccc3ccccc23)cc1 (stereo not drawn) : is its IC50 strictly below 200 nM?
# output label 0

# input Record CC#CCOc1ccc(S(=O)(=O)C(CCCCCC#N)C(=O)NO)cc1 (stereo not drawn) : is its IC50 strictly below 200 nM?
# output label 1

# input Record CC#CCOc1ccc([S+]([O-])[C@H](C(=O)NO)c2cccc(Br)c2)cc1 (single isomer, unassigned) : is its IC50 strictly below 200 nM?
# output label 1

# input Record CC#CCOc1ccc(S(=O)(=O)C(C(=O)NO)C2CCN(C(=O)OC(C)(C)C)CC2)cc1 (stereo not drawn) : is its IC50 strictly below 200 nM?
# output label 1

# input Record CC#CCOc1ccc([S+]([O-])C(C(=O)NO)c2ccc(Cl)cc2)cc1 (mixture of isomers) : is its IC50 strictly below 200 nM?
# output label 0

# input Record CC#CCOc1ccc([S+]([O-])[C@H](C(=O)NO)c2ccc(Br)cc2)cc1 (single isomer, unassigned) : is its IC50 strictly below 200 nM?
# output label 1

# input Record CC#CCOc1ccc(S(=O)(=O)C(C(=O)NO)C2CCNCC2)cc1 (stereo not drawn) : is its IC50 strictly below 200 nM?
# output label 0

# input Record CC#CCOc1ccc(SC(C(=O)NO)c2cccc(Cl)c2)cc1 (stereo not drawn) : is its IC50 strictly below 200 nM?
# output label 1

# input Record CC#CCOc1ccc(S(=O)(=O)C(C(=O)NO)C2CCN(Cc3ccc(OC)cc3)CC2)cc1 (stereo not drawn) : is its IC50 strictly below 200 nM?
# output label 0

# input Record CC#CCOc1ccc([S+]([O-])[C@@H](C(=O)NO)c2ccccc2)cc1 (stereo partly drawn) : is its IC50 strictly below 200 nM?
# output label 1

# input Record CC#CCOc1ccc(SC(C(=O)NO)C(C)C)cc1 (stereo not drawn) : is its IC50 strictly below 200 nM?
# output label 1

# input Record CC#CCOc1ccc([S+]([O-])C(C(=O)NO)c2ccc(OCC)cc2)cc1 (stereo not drawn) : is its IC50 strictly below 200 nM?
# output label 1

----------
- System name: MMP-9 (Homo sapiens, UniProt P14780)
- Sequence (P14780 94-707): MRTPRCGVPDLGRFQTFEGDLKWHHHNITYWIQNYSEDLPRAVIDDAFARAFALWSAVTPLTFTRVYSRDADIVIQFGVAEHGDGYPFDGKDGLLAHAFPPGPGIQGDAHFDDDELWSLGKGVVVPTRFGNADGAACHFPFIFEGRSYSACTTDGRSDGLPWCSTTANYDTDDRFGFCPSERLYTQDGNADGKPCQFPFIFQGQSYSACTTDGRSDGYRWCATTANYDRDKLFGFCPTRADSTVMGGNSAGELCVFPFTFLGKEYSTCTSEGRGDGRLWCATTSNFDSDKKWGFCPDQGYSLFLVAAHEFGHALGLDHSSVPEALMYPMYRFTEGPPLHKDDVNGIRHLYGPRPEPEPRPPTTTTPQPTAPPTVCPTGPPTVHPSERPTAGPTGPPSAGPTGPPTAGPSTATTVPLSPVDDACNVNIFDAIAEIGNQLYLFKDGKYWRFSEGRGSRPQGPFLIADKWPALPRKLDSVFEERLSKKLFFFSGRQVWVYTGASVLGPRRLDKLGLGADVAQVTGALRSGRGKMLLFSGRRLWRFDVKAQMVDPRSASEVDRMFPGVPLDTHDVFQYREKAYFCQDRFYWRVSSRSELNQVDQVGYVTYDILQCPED
- Protocol notes: MMP-9 inhibition (thiopeptide or fluorescent peptide substrate)
pIC50: −log10 of the molar value.
Threshold rule: pIC50 greater than or equal to 6 is True; below that, False.

# input API: above_or_equal(metric=pIC50, cutoff=6) for item CC#CCOc1ccc(S(=O)(=O)C(C)(Cc2ccc(OCCN3CCCCC3)cc2)C(=O)NO)cc1 (centres unmarked)
# output True

# input API: above_or_equal(metric=pIC50, cutoff=6) for item CC#CCOc1ccc(S(=O)(=O)C(C(=O)NO)C(C)C)cc1 (centres unmarked)
# output False

# input API: above_or_equal(metric=pIC50, cutoff=6) for item CC#CCOc1ccc(S(=O)(=O)C(C)(Cc2ccc(-c3ccccc3)cc2)C(=O)NO)cc1 (centres unmarked)
# output True

----------
- System name: MMP-13 (Homo sapiens)
- Protocol notes: MMP-13 inhibition (thiopeptide or fluorescent peptide substrate)
- Type: biochemical
- Condition set: % at 1 um (specified in cell); read-out: MMP13
Please provide measured inhibition at 1 µM for the entries that follow.
Quick note: number first, unit second.

# input Notebook entry, MMP-13 (Homo sapiens) assay: inhibition at 1 µM of CC#CCOc1ccc([S+]([O-])C(C(=O)NO)c2ccc3ccccc3c2)cc1 (centres unmarked) [Example 115] = ?
# output 45.1%

# input Notebook entry, MMP-13 (Homo sapiens) assay: inhibition at 1 µM of CC#CCOc1ccc(S(=O)(=O)C(C(=O)NO)c2ccc(Br)cc2)cc1 (centres unmarked) [Example 88] = ?
# output 21%

# input Notebook entry, MMP-13 (Homo sapiens) assay: inhibition at 1 µM of CC#CCOc1ccc(S(=O)(=O)C(C(=O)NO)c2cccc(Cl)c2)cc1 (centres unmarked) [Example 84] = ?
# output 23%

# input Notebook entry, MMP-13 (Homo sapiens) assay: inhibition at 1 µM of CC#CCOc1ccc([S+]([O-])[C@@H](C(=O)NO)c2ccc(Br)cc2)cc1 (single isomer, unassigned) [Example 87] = ?
# output 33%

# input Notebook entry, MMP-13 (Homo sapiens) assay: inhibition at 1 µM of CC#CCOc1ccc([S+]([O-])C(C(=O)NO)c2ccc(Cl)cc2)cc1 (mixture of isomers) [Example 81] = ?
# output 21.6%

# input Notebook entry, MMP-13 (Homo sapiens) assay: inhibition at 1 µM of CC#CCOc1ccc(S(=O)(=O)C(C(=O)NO)c2ccc3ccccc3c2)cc1 (centres unmarked) [Example 116] = ?
# output 33.6%

# input Notebook entry, MMP-13 (Homo sapiens) assay: inhibition at 1 µM of CC#CCOc1ccc([S+]([O-])[C@@H](C(=O)NO)c2ccc(-c3cccs3)cc2)cc1 (some centres unmarked) [Example 90] = ?
# output 16%

# input Notebook entry, MMP-13 (Homo sapiens) assay: inhibition at 1 µM of CC#CCOc1ccc(S(=O)(=O)C(C(=O)NO)C2CCN(C(=O)c3ccccc3)CC2)cc1 (centres unmarked) [Example 120] = ?
# output 51%

----------
- System name: TNF-α converting enzyme (TACE) (Homo sapiens, UniProt P78536)
- Protocol notes: Test procedure for measuring TACE inhibition (fluorescent peptidyl substrate)
- Format: biochemical
- Condition set: Table 1
Please provide measured pIC50 for the entries that follow.
The quantity pIC50 is defined as the negative base-10 logarithm of the molar concentration.

# input Please report the recorded pIC50 for CC#CCOc1ccc(SC(CCCCNC(=O)CNC(=O)c2cccn2C)C(=O)NO)cc1 (stereo not shown) .
# output 7.65

# input Please report the recorded pIC50 for CC#CCOc1ccc(SC(CCCCNC(=O)CN2C(=O)c3ccccc3C2=O)C(=O)NO)cc1 (stereo not shown) .
# output 7.37

# input Please report the recorded pIC50 for CC#CCOc1ccc(SC(CCCCNC(=O)CNC(=O)c2nccc3ccccc23)C(=O)NO)cc1 (stereo not shown) .
# output 7.44

# input Please report the recorded pIC50 for CC#CCOc1ccc(SC(CCCCNC(=O)CNC(=O)c2cnc3ccccc3c2)C(=O)NO)cc1 (stereo not shown) .
# output 7.72
